measurementTarget: D(1A) dopamine receptor (Homo sapiens)
Sequence (P21728 whole entry): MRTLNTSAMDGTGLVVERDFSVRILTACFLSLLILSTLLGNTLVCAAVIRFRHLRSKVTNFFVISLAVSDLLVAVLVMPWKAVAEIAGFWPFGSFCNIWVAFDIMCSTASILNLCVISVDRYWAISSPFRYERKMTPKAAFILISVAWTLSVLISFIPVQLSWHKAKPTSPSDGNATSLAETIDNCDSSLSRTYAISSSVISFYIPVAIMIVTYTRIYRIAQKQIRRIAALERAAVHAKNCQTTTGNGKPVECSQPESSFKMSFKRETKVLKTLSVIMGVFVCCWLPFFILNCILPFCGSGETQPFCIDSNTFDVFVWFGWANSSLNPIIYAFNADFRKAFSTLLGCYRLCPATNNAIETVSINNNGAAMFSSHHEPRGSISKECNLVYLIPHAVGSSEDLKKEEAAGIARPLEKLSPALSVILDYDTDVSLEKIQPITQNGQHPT
experimentDescription: D1R Functional Assay
assayContext: pH 7.5
Listed compounds paired with reported pIC50
Keep in mind that pIC50 stands for -log10 of concentration in molar terms.

Past entries and their recorded results:
compound	measurementTarget	pIC50
Oc1cc2c(cc1O)C1Cc3ccc(O)c(O)c3CCN1CC2 (stereo not drawn)	D(1A) dopamine receptor (Homo sapiens)	3.94
COc1cc2c(cc1O)C1Cc3ccc(OC)c(OC)c3CCN1CC2 (stereo not drawn)	D(1A) dopamine receptor (Homo sapiens)	4.48

Measured on D(1A) dopamine receptor (Homo sapiens), COc1cc2c(cc1O)C1Cc3ccc(OC)c(O)c3CCN1CC2 (stereo not drawn) has a documented pIC50 of 6.85

---

Heads up, these compounds all have Ki values measured for D(1A) dopamine receptor (Homo sapiens, UniProt P21728).
Use nM as the unit, but write only the number.

Reference set, count: 3
compound	Ki (nM)
COc1ccc2c(c1OC)CCN1CCc3cc(O)c(O)cc3C1C2 (centres undefined)	220
Oc1cc2c(cc1O)C1Cc3ccc(O)c(O)c3CCN1CC2 (centres undefined)	33.7
COc1cc2c(cc1O)C1Cc3ccc(OC)c(OC)c3CCN1CC2 (centres undefined)	30.3

# input for lookup
The reported Ki value, D(1A) dopamine receptor (Homo sapiens, UniProt P21728), for COc1cc2c(cc1OC(C)=O)C1Cc3ccc(OC)c(OC)c3CCN1CC2 (centres undefined) reads 474

---

measurementTarget: D(3) dopamine receptor (Homo sapiens, UniProt P35462)
Sequence (P35462 as listed by the source): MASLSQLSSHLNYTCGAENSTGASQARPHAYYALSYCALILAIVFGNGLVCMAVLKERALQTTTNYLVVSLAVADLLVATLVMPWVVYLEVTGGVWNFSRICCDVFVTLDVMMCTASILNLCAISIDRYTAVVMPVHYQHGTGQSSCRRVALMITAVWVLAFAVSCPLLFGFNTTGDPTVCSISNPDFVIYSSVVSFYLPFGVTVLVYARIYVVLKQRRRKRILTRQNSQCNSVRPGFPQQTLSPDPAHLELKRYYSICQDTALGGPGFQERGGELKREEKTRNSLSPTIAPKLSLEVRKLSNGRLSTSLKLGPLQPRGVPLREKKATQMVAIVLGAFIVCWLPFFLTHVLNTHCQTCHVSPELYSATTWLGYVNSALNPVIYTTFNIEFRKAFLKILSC
experimentDescription: Competitive Binding Assays
property: pKi
Notebook: values listed as pKi are -log10 of the concentration (mol/L).

compound	pKi
COc1cc2c(cc1OC)C1Cc3ccc(OC)c(OC)c3CCN1CC2 (centres undefined)	7.66

The compound Oc1cc2c(cc1O)C1Cc3ccc(O)c(O)c3CCN1CC2 (centres undefined) on D(3) dopamine receptor (Homo sapiens, UniProt P35462): pKi was 6.33

D(3) dopamine receptor (Homo sapiens, UniProt P35462) data for COc1ccc2c(c1OC)CCN1CCc3cc(O)c(O)cc3C1C2 (centres undefined) ; its pKi: 7.21

The value of pKi recorded for COc1cc2c(cc1O)C1Cc3ccc(OC)c(OC)c3CCN1CC2 (centres undefined) when tested on D(3) dopamine receptor (Homo sapiens, UniProt P35462) reads 6.55
